test: Toxicity liver stage against HepG2, at 10uM
Format: cell-based
Parameters: test concentration 10 uM, cell line HepG2-A16-CD81EGFP
experimental-parameters: human, HepG2-A16-CD81EGFP cells; read-out: INHIBITION
Exercise: state measured cytotoxicity at 10 µM for each of the compounds provided.
Quick note: give the figure in %, leave out the unit.

Lab note: COCCNc1ncc(-c2cc(C)no2)c(-c2ccco2)n1 gave cytotoxicity at 10 µM of 13.4

Lab note: O=C(Nc1cc(CSCCO)ccn1)c1cc2ccccc2[nH]1 gave cytotoxicity at 10 µM of 17.3

Lab note: CC(C)C1CN(c2cnccn2)CCC(=O)N1Cc1ccc(F)cc1 (centres undefined) gave cytotoxicity at 10 µM of 3.67

Lab note: Cc1c(Cl)c(C(=O)N2CC[C@H](N3CCOCC3)[C@H](CCCO)C2)nn1C gave cytotoxicity at 10 µM of -148

Lab note: COc1ccc(-c2n[nH]c(C)c2CC(=O)NCC2CCCO2)cc1 (centres undefined) gave cytotoxicity at 10 µM of -11.6

Lab note: CC(C)(C)C(=O)NCCc1cc2nc(-c3ccncc3)ccn2n1 gave cytotoxicity at 10 µM of 6.66

Lab note: COCCC(=O)N1CCC(C(=O)c2cc(C)cnc2N)CC1 gave cytotoxicity at 10 µM of -27.7

Lab note: Cc1ccc(C(=O)N2CCCCC2c2[nH]ncc2S(C)(=O)=O)s1 (centres undefined) gave cytotoxicity at 10 µM of -11.4

Lab note: O=C1COC2(CCN(Cc3cccnc3)CC2)CN1c1ccccc1 gave cytotoxicity at 10 µM of -113

Lab note: O=C(c1sccc1C1CC1)N1CCN(CC(F)(F)F)CC1 gave cytotoxicity at 10 µM of -1.58

Lab note: Cc1ccc(C(=O)NC(C)CN2CCCC2=O)c(=O)[nH]1 (centres undefined) gave cytotoxicity at 10 µM of -0.524

Lab note: CN1CCN(C(=O)CCc2cccnc2)c2ccc(F)cc21 gave cytotoxicity at 10 µM of -2.23

Lab note: CC(CCNC(=O)NCCc1ccncc1)c1ccccc1 (centres undefined) gave cytotoxicity at 10 µM of -5.82

Lab note: Cc1noc(C)c1C(=O)N1C[C@@H]2C[C@@H](c3ccncn3)O[C@@H]2C1 gave cytotoxicity at 10 µM of -70

Lab note: Cn1cc(CNCC2(O)CCCN(Cc3ccc(F)c(F)c3)C2=O)cn1 (centres undefined) gave cytotoxicity at 10 µM of -14.5

Lab note: O=C(NCCOc1ccc2c(c1)OCO2)C1CC(=O)N(C2CC2)C1 (centres undefined) gave cytotoxicity at 10 µM of -6.75

Lab note: COc1cc(N2CCC3(CCN(Cc4csc(C)n4)C3=O)C2)ncn1 (centres undefined) gave cytotoxicity at 10 µM of -104

Lab note: COC(C)(C)CNC(=O)N1CCCC1c1c(C)n[nH]c1C (centres undefined) gave cytotoxicity at 10 µM of 1.76

Lab note: CCCc1nc(CN2CCCC(c3noc(C4CC4)n3)C2)no1 (centres undefined) gave cytotoxicity at 10 µM of -8.87

Lab note: CCOc1cc(C(=O)N2CCCC(c3nc(C)c(C)s3)C2)ccn1 (centres undefined) gave cytotoxicity at 10 µM of -3.92

Lab note: O=C(Nc1nnn[nH]1)c1cc(-c2ccc(Br)s2)n[nH]1 gave cytotoxicity at 10 µM of -2.71

Lab note: Cc1cc(C)n(CC2CCCN2C(=O)c2cn[nH]c2C)n1 (centres undefined) gave cytotoxicity at 10 µM of -11.6

Lab note: Cc1cc(C)nc(CNC(=O)C(c2cccnc2)N2CCOCC2)n1 (centres undefined) gave cytotoxicity at 10 µM of -1.43

Lab note: CC(C)CNC(=O)COc1cccc[n+]1[O-] gave cytotoxicity at 10 µM of -8.35

* * *

Exercise: state measured cytotoxicity at 10 µM for each of the molecules provided.
test: Toxicity liver stage against HepG2, at 10uM
Format: cell-based
Parameters: test concentration 10 uM, cell line HepG2-A16-CD81EGFP
experimental-parameters: human, HepG2-A16-CD81EGFP cells; read-out: INHIBITION

Lab note: COc1cccc(CCn2ccnc2-c2cn(C3CCNCC3)nn2)c1 gave cytotoxicity at 10 µM of -7.23%

Lab note: O=C(NCCc1cscn1)c1coc(CN2CCOCC2)c1 gave cytotoxicity at 10 µM of -3.7%

Lab note: CCS(=O)(=O)NCC(=O)N1CC2(CCCC2)c2c(F)cccc21 gave cytotoxicity at 10 µM of 1.56%

Lab note: CCCc1nc(N2CC[C@@H](c3ccc4ccccc4c3)[C@H](O)C2)no1 gave cytotoxicity at 10 µM of -0.471%

Lab note: Cc1ccc(C(=O)N2CC[C@@]3(O)CCCC[C@H]3C2)cc1 gave cytotoxicity at 10 µM of -45.1%

Lab note: COc1ccc2c(c1)CCCN2C(=O)CN1CCOC(C)C1 (stereo unspecified) gave cytotoxicity at 10 µM of 2.59%

Lab note: CC[S+](CC)[c-]1c(=O)[nH]c(=O)n(CCc2ccc(F)cc2)c1=O gave cytotoxicity at 10 µM of 4.12%

Lab note: CC(C)(O)CN1CCN(C(=O)c2cccc3[nH]ncc23)CC1 gave cytotoxicity at 10 µM of 3.28%

Lab note: O=C(c1cnccn1)N1CCC2(CCN(Cc3ccsc3)C2)CC1 gave cytotoxicity at 10 µM of -3.33%

Lab note: COc1ccc(C)cc1-n1cnnc1C1CC(=O)N(C)C1 (stereo unspecified) gave cytotoxicity at 10 µM of -9.25%

Lab note: CN(Cc1cnccn1)CC1CCOc2ccccc2C1 (stereo unspecified) gave cytotoxicity at 10 µM of -3.75%

* * *

test: Toxicity liver stage against HepG2, at 10uM
Format: cell-based
Set-up: test concentration 10 uM, cell line HepG2-A16-CD81EGFP
experimental-parameters: human, HepG2-A16-CD81EGFP cells; read-out: INHIBITION
endpoint-label: cytotoxicity at 10 µM (%)
Quick note: give the figure in %, leave out the unit.

Lab note: CC(C)Cc1nc(CSC2CCCN(c3cnn(C)c3)C2=O)no1 (stereo unspecified) gave cytotoxicity at 10 µM of 17.7

Lab note: COC(=O)c1cc2c(OC)c(C)c(OC)cc2[nH]1 gave cytotoxicity at 10 µM of -12.8

Lab note: CCOC(=O)C1(Cc2ccccc2)CCCN(Cc2nccn2CC)C1 (stereo unspecified) gave cytotoxicity at 10 µM of 8.82

Lab note: CCOc1ccc(Cl)cc1C(C(=O)O)N1CCOCC1 (stereo unspecified) gave cytotoxicity at 10 µM of -0.924

Lab note: Cc1cnc(-c2nc(C3CCCN(Cc4cccs4)C3)no2)cn1 (stereo unspecified) gave cytotoxicity at 10 µM of 1.33

Lab note: Cc1ccoc1CNCc1nnc2n1CC(C(F)(F)F)CC2 (stereo unspecified) gave cytotoxicity at 10 µM of 14.3

* * *

Exercise: state measured cytotoxicity at 10 µM for each of the compounds provided.
test: Toxicity liver stage against HepG2, at 10uM
Format: cell-based
Parameters: test concentration 10 uM, cell line HepG2-A16-CD81EGFP
experimental-parameters: human, HepG2-A16-CD81EGFP cells; read-out: INHIBITION
Please state the value followed by its unit.

Lab note: Clc1ccc(C2(CNC3=NCCN3)CC2)cc1 gave cytotoxicity at 10 µM of 7.38%

Lab note: O=S(=O)(NCCCN1CC=CC1)c1cncc(Cl)c1 gave cytotoxicity at 10 µM of -6.38%

Lab note: COC(=O)C(C)N(Cc1cc(C)on1)C1CC1 (stereo not drawn) gave cytotoxicity at 10 µM of 0.91%

Lab note: Cc1cccc(N2CC[C@@H]3[C@@H](CO[C@H]3CNS(C)(=O)=O)C2)n1 gave cytotoxicity at 10 µM of 3.62%

Lab note: CCc1nnsc1C(=O)N1CCCN(Cc2nccn2C)CC1 gave cytotoxicity at 10 µM of -4.26%

Lab note: COc1ccc2[nH]nc(CN3CCC(C(C)N(C)C)CC3)c2c1 (stereo not drawn) gave cytotoxicity at 10 µM of -1.45%

Lab note: CN(C)[C@@H]1CN(C(=O)Cc2cccs2)[C@@H]2CCCO[C@H]12 gave cytotoxicity at 10 µM of 5.93%

Lab note: CN(Cc1ccoc1)C(=O)CN1C(=O)OC(C)(C)C1=O gave cytotoxicity at 10 µM of -128%

Lab note: CN(C)C(=O)N1CCC2(CCCN(CCOc3ccccc3)C2)C1 (stereo not drawn) gave cytotoxicity at 10 µM of -0.537%

Lab note: Fc1ccc(OCCNC2CCN(Cc3ccncc3)CC2)c(F)c1 gave cytotoxicity at 10 µM of -11.1%

Lab note: CC(C)N1CCC(CNC(=O)CCc2cc(F)ccc2F)C1 (stereo not drawn) gave cytotoxicity at 10 µM of -5.38%

Lab note: COc1ccc(OC)c(C(O)CNC(=O)Nc2cc(C)nn2C)c1 (stereo not drawn) gave cytotoxicity at 10 µM of -9.86%

Lab note: O=C(NCCCN1CCCC1=O)c1ccc(-n2ccc3ccccc32)s1 gave cytotoxicity at 10 µM of 6.69%

Lab note: Cc1cc2ccccc2n1CC(=O)N[C@@H](C)C(=O)O gave cytotoxicity at 10 µM of 0.77%

Lab note: COCCN(Cc1cnn(C)c1)C(=O)C1CCCN(C2CCOCC2)C1 (stereo not drawn) gave cytotoxicity at 10 µM of 4.76%

Lab note: Cc1noc(C)c1C(=O)N1CCCN(C)c2ccc(Cl)cc21 gave cytotoxicity at 10 µM of 4.61%

Lab note: Cn1nc(C(=O)NCc2ccc(Cl)cc2)c2c1CCS(=O)(=O)C2 gave cytotoxicity at 10 µM of 5.01%

Lab note: CC(CNC(=O)NCc1ccoc1)N1CCc2sccc2C1 (stereo not drawn) gave cytotoxicity at 10 µM of -4.8%

Lab note: CC[C@H]1CN2CC[C@H]1C[C@@H]2CNC(=O)c1ccco1 gave cytotoxicity at 10 µM of 3.46%

Lab note: c1coc(CN2C[C@H](OCC3CCOCC3)[C@H]3COC[C@H]32)c1 gave cytotoxicity at 10 µM of 0.127%

Lab note: CSc1cccc(CN(C)C(=O)Nc2nc(C)n(C)n2)c1 gave cytotoxicity at 10 µM of 2.78%

Lab note: COCCN1C(=O)[C@]2(CC[C@@H]3CN(Cc4ccccc4F)C[C@@H]32)N=C1C gave cytotoxicity at 10 µM of -0.0957%

Lab note: Cn1cc(N2CCC(NC(=O)c3ccccc3Cl)C2=O)cn1 (stereo not drawn) gave cytotoxicity at 10 µM of 4.35%
